Source listed as ChEMBL document CHEMBL3734711.

target: Sphingosine kinase 1 (Homo sapiens); experiment: Inhibition of human recombinant SphK1 preincubated for 5 mins followed by substrate addition measured for 60 mins by plate reader assay
Sequence (Q9NYA1 whole entry): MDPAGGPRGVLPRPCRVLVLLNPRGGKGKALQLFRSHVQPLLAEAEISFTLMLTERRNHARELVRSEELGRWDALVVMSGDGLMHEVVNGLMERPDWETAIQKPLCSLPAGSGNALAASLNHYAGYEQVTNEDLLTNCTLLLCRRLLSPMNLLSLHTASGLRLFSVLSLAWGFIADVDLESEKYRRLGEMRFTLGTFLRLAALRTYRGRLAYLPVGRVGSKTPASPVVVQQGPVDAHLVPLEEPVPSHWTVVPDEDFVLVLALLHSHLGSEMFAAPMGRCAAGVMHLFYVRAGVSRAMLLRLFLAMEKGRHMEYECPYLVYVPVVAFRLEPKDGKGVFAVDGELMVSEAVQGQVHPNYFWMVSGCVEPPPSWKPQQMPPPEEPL
Result Type: IC50 (µM)

[A] CCCOc1ccc(N2C(=O)CC(Nc3ccc(CCO)cc3)C2=O)cc1 (stereo not drawn)
[B] O=C(N/N=C/c1cccc(OCc2ccccc2)c1)c1cc(O)c(O)c(O)c1
[C] CCCCCCCCCCCCCC(=O)Nc1nc2ccccc2[nH]1
Request: Order all 3 entries above by recorded IC50, highest first, lowest last. Write out the labels following the order that was asked for.
Response: A, C, B
